src = paper PMC4628560

Molecular target: 6-phosphogluconate dehydrogenase (6PGD) (Homo sapiens)
Sequence (P52209 1-483): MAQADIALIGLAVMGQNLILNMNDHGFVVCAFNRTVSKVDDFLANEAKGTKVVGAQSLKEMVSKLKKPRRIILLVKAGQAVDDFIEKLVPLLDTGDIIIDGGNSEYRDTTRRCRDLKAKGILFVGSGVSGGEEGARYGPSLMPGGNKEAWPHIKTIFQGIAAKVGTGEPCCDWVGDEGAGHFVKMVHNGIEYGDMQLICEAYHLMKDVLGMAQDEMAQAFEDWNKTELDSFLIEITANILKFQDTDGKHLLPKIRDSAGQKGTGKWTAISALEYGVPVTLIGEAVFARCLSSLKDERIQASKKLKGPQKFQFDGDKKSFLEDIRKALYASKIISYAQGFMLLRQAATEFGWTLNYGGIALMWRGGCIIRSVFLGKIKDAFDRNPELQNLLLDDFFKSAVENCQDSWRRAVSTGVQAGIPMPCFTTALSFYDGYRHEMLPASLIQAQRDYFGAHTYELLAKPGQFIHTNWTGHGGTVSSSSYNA
Test: tryptophan fluorescence-based binding assay with purified human 6PGD
recorded endpoint: pKd
pKd is a log-scale quantity: -log10 of the concentration expressed in molar.

The recorded pKd for COc1cccc2c1C(=O)c1c(O)cccc1C2=O [S3, 1-Hydroxy-8-methoxy-anthraquinon] is 4.77

----------
Target: 6-phosphogluconate dehydrogenase (6PGD) (Homo sapiens)
Sequence (P52209 1-483): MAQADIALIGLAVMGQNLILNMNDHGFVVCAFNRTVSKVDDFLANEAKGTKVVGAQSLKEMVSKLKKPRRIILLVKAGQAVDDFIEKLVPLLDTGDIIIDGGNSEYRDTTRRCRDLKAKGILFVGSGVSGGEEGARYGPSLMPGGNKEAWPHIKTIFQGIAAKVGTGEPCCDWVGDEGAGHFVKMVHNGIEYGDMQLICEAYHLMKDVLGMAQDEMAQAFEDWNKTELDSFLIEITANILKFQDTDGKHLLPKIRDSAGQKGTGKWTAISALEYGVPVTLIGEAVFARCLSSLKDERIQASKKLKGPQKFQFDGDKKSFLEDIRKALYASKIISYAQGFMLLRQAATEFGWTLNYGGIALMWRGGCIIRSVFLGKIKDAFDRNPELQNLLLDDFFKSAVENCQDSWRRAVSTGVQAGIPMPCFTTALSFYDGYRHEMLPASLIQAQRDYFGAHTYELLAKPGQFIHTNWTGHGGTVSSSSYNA
Experiment: tryptophan fluorescence-based binding assay with purified human 6PGD
recorded endpoint: Kd (µM)
Provide the reading as a plain figure in µM.

The recorded Kd for COc1cc(O)c2c(c1)C(=O)c1cc(C)cc(O)c1C2=O [Physcion] is 26
